Consider molecules characterized by their IC50 with UniProt Q7ZJM1.
Field: value (include unit after the number)

O=C(Nc1cccc2ccccc12)c1nc(-c2cccs2)nc(O)c1O = 214 nM
O=C(NCc1cc2ccccc2s1)c1nc(-c2cccs2)nc(O)c1O = 10 nM
O=C(NCn1ccnc1)c1nc(-c2cccs2)nc(O)c1O = 17000 nM
O=C(NCc1nccs1)c1nc(-c2cccs2)nc(O)c1O = 200 nM
O=C(NCc1cncs1)c1nc(-c2cccs2)nc(O)c1O = 2510 nM

GET IC50 | system: UniProt Q7ZJM1 | item: `O=C(NCc1csc2ccccc12)c1nc(-c2cccs2)nc(O)c1O`
50.1 nM

---

# system tested: UniProtKB Q7ZJM1
pIC50: −log10 of the molar value.
Please note: 1 applies when pIC50 is 7 or greater, and 0 applies otherwise.

O=C(N[C@@H]1CCc2ccccc21)c1nc(-c2cccs2)nc(O)c1O = 1
O=C(Nc1ccc2ccccc2c1)c1nc(-c2cccs2)nc(O)c1O = 1
O=C(N[C@H]1CCc2ccccc21)c1nc(-c2cccs2)nc(O)c1O = 0
O=C(NCn1cncn1)c1nc(-c2cccs2)nc(O)c1O = 0

Determine whether measured pIC50 meets or exceeds 7 for `O=C(NCC1CCCCC1)c1nc(-c2cccs2)nc(O)c1O`
1

---

Consider compounds characterized by their pIC50 with Human immunodeficiency virus type 1 integrase (Human immunodeficiency virus 1).
Sequence (Q7ZJM1 whole entry): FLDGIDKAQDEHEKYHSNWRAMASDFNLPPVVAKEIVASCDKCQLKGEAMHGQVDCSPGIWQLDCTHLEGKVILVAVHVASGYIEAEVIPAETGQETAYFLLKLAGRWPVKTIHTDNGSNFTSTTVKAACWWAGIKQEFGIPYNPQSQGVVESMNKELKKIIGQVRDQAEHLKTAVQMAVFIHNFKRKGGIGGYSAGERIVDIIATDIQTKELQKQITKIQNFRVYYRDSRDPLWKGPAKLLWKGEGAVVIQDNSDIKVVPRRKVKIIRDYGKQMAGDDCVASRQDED
// pIC50 is dimensionless: -log10 of concentration (M)

Recorded pIC50, per entry:
O=C(NCc1cccs1)c1nc(-c2cccs2)nc(O)c1O = 7.00
COc1ccccc1CNC(=O)c1nc(-c2cccs2)nc(O)c1O = 7.04

Now let's try a different one.
GET pIC50 | system: Human immunodeficiency virus type 1 integrase (Human immunodeficiency virus 1) | item: `O=C(NCc1ccccc1F)c1nc(-c2cccs2)nc(O)c1O`
6.79
